- TARGET SYSTEM: T1, His-tagged P3028 (human, also: His-tag, terminus and sequence not given here)
- T1 construct: in solution at 0.5 ug/mL over the peptide cards; found with anti-His-tag antibody and rabbit anti-mouse peroxidase (rampo); also called PGE73; not shown: His-tag
- T1 peptide: VFDEFKPLVEEPQNLIK
- EXPERIMENTAL DETAILS: PEPSCAN chip ELISA, His-P3028 in solution;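 also: score is the raw OD at 405 nm from peroxidase colour with ABTS, imaged by CCD camera before and after staining, with wells showing air bubbles set to zero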
No end group written: not given here.
Lab note: anything with RAMPO Score below 400 rampo score is marked Fulfilled; values at 400 rampo score or higher are marked Not fulfilled.

>  <BINDER>
KKLDKFFVKLSLFTER [SEQ ID NO 530]

>  <CATEGORY>
Fulfilled

$$$$
>  <BINDER>
KKLDAFFVKLSLFTER [SEQ ID NO 447]

>  <CATEGORY>
Fulfilled

$$$$
>  <BINDER>
KTLDTFFVKLSLFTER [SEQ ID NO 468]

>  <CATEGORY>
Fulfilled

$$$$
>  <BINDER>
NKLDTFFVKLSLFTER [SEQ ID NO 276]

>  <CATEGORY>
Not fulfilled

$$$$
>  <BINDER>
KKCDTFFVKLSLFTER [SEQ ID NO 283]

>  <CATEGORY>
Not fulfilled

$$$$
>  <BINDER>
VKLDTFFVKLSLFTER [SEQ ID NO 281]

>  <CATEGORY>
Not fulfilled

$$$$
>  <BINDER>
KKLDTRFVKLSLFTER [SEQ ID NO 486]

>  <CATEGORY>
Fulfilled

$$$$
>  <BINDER>
KKLDTFFCKLSLFTER [SEQ ID NO 519]

>  <CATEGORY>
Fulfilled

$$$$
>  <BINDER>
KKLDTFFVKLCLFTER [SEQ ID NO 457]

>  <CATEGORY>
Fulfilled

$$$$
>  <BINDER>
KKLHTFFVKLSLFTER [SEQ ID NO 479]

>  <CATEGORY>
Fulfilled

$$$$
>  <BINDER>
KKLDTFFVKLSKFTER [SEQ ID NO 438]

>  <CATEGORY>
Fulfilled

$$$$
>  <BINDER>
KKLDTAFVKLSLFTER [SEQ ID NO 7]

>  <CATEGORY>
Not fulfilled

$$$$
>  <BINDER>
KKLDTFFGKLSLFTER [SEQ ID NO 327]

>  <CATEGORY>
Fulfilled

$$$$
>  <BINDER>
KKLDCFFVKLSLFTER [SEQ ID NO 304]

>  <CATEGORY>
Not fulfilled

$$$$
>  <BINDER>
KKLDTKFVKLSLFTER [SEQ ID NO 460]

>  <CATEGORY>
Fulfilled

$$$$
>  <BINDER>
KKLDVFFVKLSLFTER [SEQ ID NO 429]

>  <CATEGORY>
Fulfilled

$$$$
